- target-of-assay: PLK1 (human) (UniProt P53350)
- Sequence (P53350 whole entry, looked up): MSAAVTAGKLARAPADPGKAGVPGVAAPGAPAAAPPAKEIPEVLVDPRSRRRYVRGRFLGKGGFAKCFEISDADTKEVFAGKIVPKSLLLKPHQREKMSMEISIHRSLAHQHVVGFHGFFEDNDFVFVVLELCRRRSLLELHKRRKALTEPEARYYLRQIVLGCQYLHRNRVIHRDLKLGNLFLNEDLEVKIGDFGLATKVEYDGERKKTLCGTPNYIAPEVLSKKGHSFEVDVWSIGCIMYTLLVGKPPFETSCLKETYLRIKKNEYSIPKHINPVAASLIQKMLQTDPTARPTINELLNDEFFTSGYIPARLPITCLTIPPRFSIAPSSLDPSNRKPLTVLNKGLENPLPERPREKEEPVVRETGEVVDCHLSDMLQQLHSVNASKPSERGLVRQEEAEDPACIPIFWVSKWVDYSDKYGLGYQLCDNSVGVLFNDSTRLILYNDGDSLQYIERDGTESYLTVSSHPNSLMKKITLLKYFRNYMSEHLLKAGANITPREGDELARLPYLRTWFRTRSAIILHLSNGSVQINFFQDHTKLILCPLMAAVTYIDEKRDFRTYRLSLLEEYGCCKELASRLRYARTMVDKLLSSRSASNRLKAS
- test-protocol: radiometric filter-binding kinase assay, Kinase HotSpot
- condition-summary: compound 0.5 µM; ATP 10 µM
Measured residual activity by item
readout-name: residual activity (%)

smiles_notation=Cn1cc(/C=C2\C(=O)Nc3ccc(S(N)(=O)=O)cc32)c2ccccc21 unit_of_measurement=% reported_value=92.1
smiles_notation=N#C/C(=C1/Nc2ccccc2S1)c1ccnc(NCCc2cccnc2)n1 unit_of_measurement=% reported_value=91.4
smiles_notation=N#CCCc1ccc2c(c1)-c1[nH]c3ccc([N+](=O)[O-])cc3c1CC(=O)N2 unit_of_measurement=% reported_value=101
smiles_notation=CCCCc1c(-c2ccc(O)cc2)[nH]c2nccnc12 unit_of_measurement=% reported_value=96.6
smiles_notation=O=c1c2ccccc2[nH]c(=S)n1CCN1CCC(=C(c2ccc(F)cc2)c2ccc(F)cc2)CC1 unit_of_measurement=% reported_value=100
smiles_notation=O=c1[nH]c2ccccc2n1C1CCN(Cc2ccc(-c3nc4cc5[nH]cnc5cc4nc3-c3ccccc3)cc2)CC1 unit_of_measurement=% reported_value=109
smiles_notation=O=C(O)c1ccc2c3c1cccc3c(=O)n1c3ccccc3nc21 unit_of_measurement=% reported_value=110
smiles_notation=c1ccc(-c2cnc(Nc3ccc(OCCN4CCCC4)cc3)s2)cc1 unit_of_measurement=% reported_value=101
smiles_notation=N#Cc1c(NC(=O)c2cccc3ccccc23)sc2c1CCCC2 unit_of_measurement=% reported_value=96.4

Provenance of the data: the kinase profiling compilation of Christmann-Franck et al. (2016)
